- assay-remarks: in vivo
- study-conditions: male, beagle, dog, iv, 0.5 mg/kg, Plasma concentration
- Description: The PO (2 mg/kg) dose solution of micronized LA1 was prepared in 0.1% Tween-80 0.5% (w/v) and methyl cellulose in water. The objective of the study was to investigate the preclinical pharmacokinetic profile of LA1 (micronized powder) in Beagle dog. […]
measurement-name: concentration at 0.05 h (ng/mL)
Report the value in ng/mL with no unit label.

Identify the reported concentration at 0.05 h for the following entry. O=C(O)c1ccc(-c2ccc(/C=C3\SC(=S)N(Cc4ccccc4)C3=O)o2)cc1
1570

---

- assay-remarks: in vivo
- study-conditions: male, beagle, dog, Dog F % (absolute oral bioavailability)
measurement-name: bioavailability
Numeric answer plus unit only.

Given the compound O=C(O)c1ccc(-c2ccc(/C=C3\SC(=S)N(Cc4ccccc4)C3=O)o2)cc1 , write its reported bioavailability.
50%

---

- assay-remarks: in vivo
- study-conditions: male, beagle, dog, po, 5 mg/kg, Plasma concentration
Counter-ions that a name gives are not always drawn.
measurement-name: concentration at 3 h (ng/mL)
The reply should contain only the number, in ng/mL.

Write down concentration at 3 h measured for item O=C(O)c1ccc(-c2ccc(/C=C3\SC(=S)N(Cc4ccccc4)C3=O)o2)cc1 [LA1 choline salt]
1560

---

- assay-remarks: in vivo
- study-conditions: male, beagle, dog, Dog Cl (ml/min/kg)
Counter-ions that a name gives are not always drawn.
measurement-name: clearance (mL/min/kg)
Express it in mL/min/kg; write the number only.

Give a short answer stating reported clearance for O=C(O)c1ccc(-c2ccc(/C=C3\SC(=S)N(Cc4ccccc4)C3=O)o2)cc1 [LA1 choline salt] .
3.92

---

- assay-remarks: Aqueous solubility by equilibration, HPLC analysis
- Type: physicochemical
- study-conditions: UHQ water, thermodynamic from solid; water, ambient temperature, slurried 4-5 days; corrected for weight of counter-ion; read-out: Aq solub
Structures can show the parent of a compound that is named as a salt.
measurement-name: solubility
Please state the value followed by its unit.

Give solubility for the following compound: O=C(O)c1ccc(-c2ccc(/C=C3\SC(=S)N(Cc4ccccc4)C3=O)o2)cc1 [LA1 meglumine salt]
724 µg/mL

---

- assay-remarks: in vivo
- study-conditions: male, Sprague-Dawley, rat, ip, 2 mg/kg, % F (absolute IP bioavailability)
measurement-name: bioavailability (%)
Form entry: value (%) — number only.

Consider the molecule O=C(O)c1ccc(-c2ccc(/C=C3\SC(=S)N(Cc4ccccc4)C3=O)o2)cc1 . State its measured bioavailability.
81.6

---

- assay-remarks: in vivo
- study-conditions: male, beagle, dog, iv, 0.5 mg/kg
Where a name gives a salt, the structure may show the parent alone.
measurement-name: Vd (L)
Give just the numeric value; L need not be written.

Give a short answer stating reported Vd for O=C(O)c1ccc(-c2ccc(/C=C3\SC(=S)N(Cc4ccccc4)C3=O)o2)cc1 [LA1 choline salt] .
0.00072

---

- assay-remarks: in vivo
- study-conditions: male, beagle, dog, iv, 0.5 mg/kg, Plasma concentration
measurement-name: concentration at 0.5 h
Could you kindly put the unit after your number?

For O=C(O)c1ccc(-c2ccc(/C=C3\SC(=S)N(Cc4ccccc4)C3=O)o2)cc1 , write its concentration at 0.5 h.
505 ng/mL

---

- assay-remarks: in vivo
- study-conditions: male, Sprague-Dawley, rat, po, 2 mg/kg, t1/2 (hr)
measurement-name: half-life (min)
Please state the figure in min; there is no need to write the unit.

Write down half-life measured for item O=C(O)c1ccc(-c2ccc(/C=C3\SC(=S)N(Cc4ccccc4)C3=O)o2)cc1
66

---

- assay-remarks: in vivo
- study-conditions: male, Beagle, dog, po, 5 mg/kg, Mean conc.
Where a name gives a salt, the structure may show the parent alone.
measurement-name: concentration at 8 h (ng/mL)
# number only, unit ng/mL dropped from output

Determine its reported concentration at 8 h: O=C(O)c1ccc(-c2ccc(/C=C3\SC(=S)N(Cc4ccccc4)C3=O)o2)cc1 [LA1 choline salt]
150

---

- assay-remarks: in vivo
- study-conditions: male, beagle, dog, po, 2 mg/kg, AUC0-12
measurement-name: AUC0-t (ng·h/mL)
Numeric only. Scale: ng·h/mL

Identify AUC0-t associated with the compound O=C(O)c1ccc(-c2ccc(/C=C3\SC(=S)N(Cc4ccccc4)C3=O)o2)cc1
2570

---

- assay-remarks: in vivo
- study-conditions: male, beagle, dog, iv, 0.5 mg/kg, Mean conc.
Counter-ions that a name gives are not always drawn.
measurement-name: concentration at 5 h (ng/mL)
// return numeric value only (unit: ng/mL, not printed)

Quick one: give measured concentration at 5 h for O=C(O)c1ccc(-c2ccc(/C=C3\SC(=S)N(Cc4ccccc4)C3=O)o2)cc1 [LA1 choline salt]
109

---

- assay-remarks: in vivo
- study-conditions: male, beagle, dog, iv, 0.5 mg/kg, Plasma concentration
measurement-name: concentration at 0.25 h (ng/mL)
Return type: number; implicit unit ng/mL.

In one line, give reported concentration at 0.25 h of the entry O=C(O)c1ccc(-c2ccc(/C=C3\SC(=S)N(Cc4ccccc4)C3=O)o2)cc1 [LA1 (micronized)] .
717

---

- assay-remarks: in vivo
- study-conditions: male, Beagle, dog, po, 5 mg/kg, Plasma concentration
Counter-ions that a name gives are not always drawn.
measurement-name: concentration at 0.5 h (ng/mL)
Supply the numeric figure in ng/mL, leaving out any unit text.

State its concentration at 0.5 h for this molecule: O=C(O)c1ccc(-c2ccc(/C=C3\SC(=S)N(Cc4ccccc4)C3=O)o2)cc1 [LA1 choline salt]
1870

---

- assay-remarks: in vivo
- study-conditions: male, Beagle, dog, iv, 0.5 mg/kg, Plasma concentration
Structures can show the parent of a compound that is named as a salt.
measurement-name: concentration at 10 h (ng/mL)
Give just the number in ng/mL; leave the unit off.

Give concentration at 10 h for the following molecule: O=C(O)c1ccc(-c2ccc(/C=C3\SC(=S)N(Cc4ccccc4)C3=O)o2)cc1 [LA1 choline salt]
19.8

---

- assay-remarks: in vivo
- study-conditions: male, beagle, dog, Dog Cl (ml/min/kg)
measurement-name: clearance (mL/min/kg)
Use mL/min/kg as the unit, but write only the number.

Check the records and state clearance for O=C(O)c1ccc(-c2ccc(/C=C3\SC(=S)N(Cc4ccccc4)C3=O)o2)cc1 [LA1 (micronized)]
2.1

---

- assay-remarks: in vivo
- study-conditions: male, Beagle, dog, po, 5 mg/kg, Mean conc.
Structures can show the parent of a compound that is named as a salt.
measurement-name: concentration at 3 h (ng/mL)
Respond numerically; units are ng/mL and should not be typed.

Write down concentration at 3 h measured for item O=C(O)c1ccc(-c2ccc(/C=C3\SC(=S)N(Cc4ccccc4)C3=O)o2)cc1 [LA1 choline salt]
1960

---

- assay-remarks: Solubility estimation by aliquot addition and temperature cycling
- Format: physicochemical
- study-conditions: organic solvent or mixture, thermodynamic from solid; 20° C.; THF; read-out: Approx. solubility
measurement-name: solubility

Assign solubility to the following record: O=C(O)c1ccc(-c2ccc(/C=C3\SC(=S)N(Cc4ccccc4)C3=O)o2)cc1
< 10000 µg/mL

---

- assay-remarks: in vivo
- study-conditions: male, beagle, dog, po, 3 mg/kg, Half life
Where a name gives a salt, the structure may show the parent alone.
measurement-name: half-life (h)
Please respond with the number in h and leave the unit unwritten.

Answer with reported half-life of O=C(O)c1ccc(-c2ccc(/C=C3\SC(=S)N(Cc4ccccc4)C3=O)o2)cc1 [LA1 choline salt]
2.11

---

- assay-remarks: Aqueous solubility by equilibration, HPLC analysis
- Assay type: physicochemical
- study-conditions: after slurrying in water 4-5 days
- Method: An aliquot of the UHQ water test solvent (1 mL) was added to an accurately weighed sample of the LA1 salts and agitated at ambient temperature for a period of 4 days. A sample was withdrawn, filtered through a […], and analyzed by HPLC. HPLC was used to determine aqueous equilibrium solubility at ambient temperature. […] Samples were slurried in water for 4-5 days before analysis.
Structures can show the parent of a compound that is named as a salt.
measurement-name: Appearance

[Ca] :: No change
C1CNCCN1 :: No change
O=C(O)c1ccc(-c2ccc(/C=C3\SC(=S)N(Cc4ccccc4)C3=O)o2)cc1 [LA1 meglumine salt] :: No change

---

- study-conditions: male, Sprague-Dawley, rat, in vivo, iv, 1 mg/kg
Structures can show the parent of a compound that is named as a salt.
The entries below come with measured C0 values attached.
Just the number please, in µg/mL, no unit attached.

Solved entries:
O=C(O)c1ccc(-c2ccc(/C=C3\SC(=S)N(Cc4ccccc4)C3=O)o2)cc1 [LA1 choline salt] :: 1.856
O=C(O)c1ccc(-c2ccc(/C=C3\SC(=S)N(Cc4ccccc4)C3=O)o2)cc1 [LA1] :: 1.317
O=C(O)c1ccc(-c2ccc(/C=C3\SC(=S)N(Cc4ccccc4)C3=O)o2)cc1 [LA1 meglumine salt] :: 2.142

We next turn to a different compound, shown below.
Fill in C0 for record O=C(O)c1ccc(-c2ccc(/C=C3\SC(=S)N(Cc4ccccc4)C3=O)o2)cc1 [LA1 (micronized)]
1.025
